Test system: Staphylococcus aureus ATCC 29213
TEST NAME: Determination of minimum bactericidal concentrations (agar aliquot subculture)
PARTICULARS: ATCC29213
In plain terms, low MBC, meaning strictly below 2 µM, gives satisfied, and everything else gives not satisfied.

{"columns": ["MOLECULE", "CATEGORY"],
 "data": [
  ["CC(C)C[C@H](NC(=O)[C@H](Cc1ccccc1)NC(=O)c1cc(Cl)ccc1O)C(=O)Nc1ccc(C(F)(F)F)cc1", "not satisfied"],
  ["CSCC[C@H](NC(=O)c1cc(Cl)ccc1O)C(=O)Nc1ccc(C(F)(F)F)cc1", "not satisfied"],
  ["CC(C)C[C@H](NC(=O)c1cc(Cl)ccc1O)C(=O)Nc1ccc(C(F)(F)F)cc1", "satisfied"],
  ["CC1(C)S[C@@H]2[C@H](NC(=O)[C@H](N)c3ccccc3)C(=O)N2[C@H]1C(=O)O [APC, ampicillin, reference compound]", "not satisfied"]
]}

Take the molecule O=C(N[C@@H](CC1CCCCC1)C(=O)Nc1ccc(C(F)(F)F)cc1)c1cc(Cl)ccc1O and say whether its MBC is less than 2 µM.
satisfied

Take the molecule CC(C)[C@H](NC(=O)c1cc(Cl)ccc1O)C(=O)Nc1ccc(C(F)(F)F)cc1 and say whether its MBC is less than 2 µM.
not satisfied

Take the molecule CCCC[C@H](NC(=O)c1cc(Cl)ccc1O)C(=O)Nc1ccc(C(F)(F)F)cc1 and say whether its MBC is less than 2 µM.
satisfied

Take the molecule O=C(N[C@@H](Cc1ccccc1)C(=O)Nc1ccc(C(F)(F)F)cc1)c1cc(Cl)ccc1O and say whether its MBC is less than 2 µM.
not satisfied

====

Reported MBC values are given for each entry in this list.
System: vancomycin-resistant E. faecalis VRE 368
TEST NAME: Determination of minimum bactericidal concentrations (agar aliquot subculture)
PARTICULARS: Enterococcus faecalis
Only the number, expressed in µM, is required.

Worked cases, answers included:
{"columns": ["COMPOUND", "UNIT TEXT", "MBC"],
 "data": [
  ["CC1(C)S[C@@H]2[C@H](NC(=O)[C@H](N)c3ccccc3)C(=O)N2[C@H]1C(=O)O [APC, ampicillin, reference compound]", "µM", 11.5],
  ["CC(C)C[C@H](NC(=O)c1cc(Cl)ccc1O)C(=O)Nc1ccc(C(F)(F)F)cc1 [3f]", "µM", 18.7],
  ["CSCC[C@H](NC(=O)c1cc(Cl)ccc1O)C(=O)Nc1ccc(C(F)(F)F)cc1 [3e]", "µM", 35.8]
]}

With those in mind, consider the next compound.
Consider the compound CC(C)[C@H](NC(=O)c1cc(Cl)ccc1O)C(=O)Nc1ccc(C(F)(F)F)cc1 [3c] and give its measured MBC.
38.6

====

Reported log k values are given for each entry in this list.
TEST NAME: Lipophilicity determination by HPLC
Type: physicochemical
PARTICULARS: logarithm of capacity factor; HPLC C18, MeOH 72%/H2O 28%
// print number alone

{"columns": ["MOL", "RECORDED RESULT"],
 "data": [
  ["CCCC[C@H](NC(=O)c1cc(Cl)ccc1OCc1ccccc1)C(=O)Nc1ccc(C(F)(F)F)cc1", 1.898],
  ["O=C(N[C@@H](Cc1ccccc1)C(=O)N[C@@H](Cc1ccccc1)C(=O)Nc1ccc(C(F)(F)F)cc1)c1cc(Cl)ccc1O", 1.587]
]}

Consider the compound CCC[C@H](NC(=O)c1cc(Cl)ccc1O)C(=O)Nc1ccc(C(F)(F)F)cc1 and give its measured log k.
1.141

Consider the compound C[C@H](NC(=O)c1cc(Cl)ccc1O)C(=O)Nc1ccc(C(F)(F)F)cc1 and give its measured log k.
0.866

Consider the compound O=C(N[C@@H](Cc1ccccc1)C(=O)Nc1ccc(C(F)(F)F)cc1)c1cc(Cl)ccc1O and give its measured log k.
1.192

====

Tested on: vancomycin-resistant E. faecalis VRE 725B
TEST NAME: Determination of minimum bactericidal concentrations (agar aliquot subculture)
PARTICULARS: Enterococcus faecalis
Reported MBC values are given for each entry in this list.
Only the number, expressed in µM, is required.

Worked cases, answers included:
{"columns": ["COMPOUND", "MBC, µM"],
 "data": [
  ["CC(C)C[C@H](NC(=O)c1cc(Cl)ccc1O)C(=O)Nc1ccc(C(F)(F)F)cc1", 37.3],
  ["CC(C)[C@H](NC(=O)c1cc(Cl)ccc1O)C(=O)Nc1ccc(C(F)(F)F)cc1", 38.6],
  ["CC1(C)S[C@@H]2[C@H](NC(=O)[C@H](N)c3ccccc3)C(=O)N2[C@H]1C(=O)O [APC, ampicillin, reference compound]", 11.5]
]}

Fill in the recorded MBC for this compound, with vancomycin-resistant E. faecalis VRE 725B as test system: CSCC[C@H](NC(=O)c1cc(Cl)ccc1O)C(=O)Nc1ccc(C(F)(F)F)cc1
35.8

====

TEST NAME: Lipophilicity determination by HPLC
Type: physicochemical
PARTICULARS: HPLC C18, MeOH 72%/acetate-buffered saline pH 6.5 28%
Reported log D6.5 values are given for each entry in this list.
// print number alone

Worked cases, answers included:
{"columns": ["MOL", "PROPERTY", "RECORDED RESULT"],
 "data": [
  ["CC(C)C[C@H](NC(=O)c1cc(Cl)ccc1OCc1ccccc1)C(=O)Nc1ccc(C(F)(F)F)cc1", "log D6.5", 2.014],
  ["CC(C)C[C@H](NC(=O)c1cc(Cl)ccc1O)C(=O)N[C@@H](Cc1ccccc1)C(=O)Nc1ccc(C(F)(F)F)cc1", "log D6.5", 1.510],
  ["CSCC[C@H](NC(=O)c1cc(Cl)ccc1OCc1ccccc1)C(=O)Nc1ccc(C(F)(F)F)cc1", "log D6.5", 1.714],
  ["O=C(N[C@@H](CC1CCCCC1)C(=O)Nc1ccc(C(F)(F)F)cc1)c1cc(Cl)ccc1O", "log D6.5", 1.615],
  ["O=C(N[C@@H](Cc1ccccc1)C(=O)Nc1ccc(C(F)(F)F)cc1)c1cc(Cl)ccc1OCc1ccccc1", "log D6.5", 1.889]
]}

Consider the compound C[C@H](NC(=O)c1cc(Cl)ccc1O)C(=O)Nc1ccc(C(F)(F)F)cc1 and give its measured log D6.5.
0.804

Consider the compound C[C@H](NC(=O)c1cc(Cl)ccc1OCc1ccccc1)C(=O)Nc1ccc(C(F)(F)F)cc1 and give its measured log D6.5.
1.489

Consider the compound O=C(N[C@@H](Cc1ccccc1)C(=O)N[C@@H](Cc1ccccc1)C(=O)Nc1ccc(C(F)(F)F)cc1)c1cc(Cl)ccc1O and give its measured log D6.5.
1.548

====

Tested on: Mycobacterium tuberculosis H37Ra/ATCC 25177
TEST NAME: In vitro antimycobacterial evaluation, MIC (alamarBlue)
PARTICULARS: MT; Table S2
PROPERTY: MIC

{"columns": ["MOLECULE", "MIC"],
 "data": [
  ["CC(C)[C@H](NC(=O)c1cc(Cl)ccc1OCc1ccccc1)C(=O)Nc1ccc(C(F)(F)F)cc1 [2c]", "> 256 µg/mL"],
  ["CC(C)C[C@H](NC(=O)c1cc(Cl)ccc1OCc1ccccc1)C(=O)N[C@@H](Cc1ccccc1)C(=O)Nc1ccc(C(F)(F)F)cc1 [5a]", "> 256 µg/mL"]
]}

Fill in the recorded MIC for this molecule, with Mycobacterium tuberculosis H37Ra/ATCC 25177 as test system: O=C(N[C@@H](Cc1ccccc1)C(=O)N[C@@H](Cc1ccccc1)C(=O)Nc1ccc(C(F)(F)F)cc1)c1cc(Cl)ccc1OCc1ccccc1 [5c]
> 256 µg/mL

====

Tested on: methicillin-resistant S. aureus 63718
TEST NAME: In vitro antibacterial evaluation, MIC by microtitration broth method
PARTICULARS: Staphylococcus aureus, 24 h
Reported MIC values are given for each entry in this list.

{"columns": ["MOLECULE", "MIC"],
 "data": [
  ["CCC[C@H](NC(=O)c1cc(Cl)ccc1O)C(=O)Nc1ccc(C(F)(F)F)cc1 [3b]", "> 256 µg/mL"],
  ["C[C@H](NC(=O)c1cc(Cl)ccc1O)C(=O)Nc1ccc(C(F)(F)F)cc1 [3a]", "> 256 µg/mL"]
]}

With those in mind, consider the next molecule.
Fill in the recorded MIC for this molecule, with methicillin-resistant S. aureus 63718 as test system: O=C(N[C@@H](Cc1ccccc1)C(=O)N[C@@H](Cc1ccccc1)C(=O)Nc1ccc(C(F)(F)F)cc1)c1cc(Cl)ccc1O [6c]
> 256 µg/mL

====

TEST NAME: Lipophilicity determination by HPLC
Type: physicochemical
PARTICULARS: logarithm of capacity factor; HPLC C18, MeOH 72%/H2O 28%
PROPERTY: log k
// print number alone

Worked cases, answers included:
{"columns": ["MOL", "log k"],
 "data": [
  ["O=C(N[C@@H](CC1CCCCC1)C(=O)Nc1ccc(C(F)(F)F)cc1)c1cc(Cl)ccc1O", 1.679],
  ["CC(C)[C@H](NC(=O)c1cc(Cl)ccc1OCc1ccccc1)C(=O)Nc1ccc(C(F)(F)F)cc1", 1.683],
  ["CSCC[C@H](NC(=O)c1cc(Cl)ccc1OCc1ccccc1)C(=O)Nc1ccc(C(F)(F)F)cc1", 1.668],
  ["CSCC[C@H](NC(=O)c1cc(Cl)ccc1O)C(=O)Nc1ccc(C(F)(F)F)cc1", 1.076],
  ["O=C(N[C@@H](Cc1ccccc1)C(=O)N[C@@H](Cc1ccccc1)C(=O)Nc1ccc(C(F)(F)F)cc1)c1cc(Cl)ccc1OCc1ccccc1", 2.119],
  ["O=C(N[C@@H](Cc1ccccc1)C(=O)Nc1ccc(C(F)(F)F)cc1)c1cc(Cl)ccc1OCc1ccccc1", 1.852],
  ["CCC[C@H](NC(=O)c1cc(Cl)ccc1OCc1ccccc1)C(=O)Nc1ccc(C(F)(F)F)cc1", 1.709],
  ["C[C@H](NC(=O)c1cc(Cl)ccc1OCc1ccccc1)C(=O)Nc1ccc(C(F)(F)F)cc1", 1.450],
  ["O=C(N[C@@H](CC1CCCCC1)C(=O)Nc1ccc(C(F)(F)F)cc1)c1cc(Cl)ccc1OCc1ccccc1", 1.820],
  ["CC(C)C[C@H](NC(=O)[C@H](Cc1ccccc1)NC(=O)c1cc(Cl)ccc1O)C(=O)Nc1ccc(C(F)(F)F)cc1", 1.547]
]}

With those in mind, consider the next compound.
Consider the compound CC(C)C[C@H](NC(=O)c1cc(Cl)ccc1OCc1ccccc1)C(=O)N[C@@H](Cc1ccccc1)C(=O)Nc1ccc(C(F)(F)F)cc1 and give its measured log k.
2.053
